Below: a set of entries, each annotated with reported TGI.
# Test system: CAKI-1 renal
# experiment-summary: NCI tumour cell line growth inhibition, 48 h
experimental-readout: TGI (µM)

- COc1ccc(OC)c(-c2cc(-c3ccc(Cl)cc3)nn2-c2ccccc2)c1: 66.9
- Oc1ccc(O)c(-n2cccn2)c1: 33.3
- CC(C)(C)OC(=O)NCC(c1c[nH]c2cc(Br)ccc12)c1c[nH]c2cc(Br)ccc12: 91.5
- CCCCCCCCCCCCCCCCCC1=NC(C)(C)CN1C(C)(C)CO: 3.9
- CC1(C)CC[C@]2(C(=O)NCCNCCN)CC[C@]3(C)C(=CC[C@@H]4[C@@]5(C)CCC(=O)C(C)(C)[C@@H]5CC[C@]43C)[C@@H]2C1: 4.47
- COc1ccc2c(c1)C(=O)/C(=C/c1ccc(O)cc1)O2: 5.66
- NC(CCl)=NCC12CC3CC(CC(C3)C1)C2: 2.48
- O=[N+]([O-])c1cc(I)cc(/C=N/NS(=O)(=O)c2ccc(F)cc2)c1O: 63.1
- COc1ccccc1N1C(=O)CSC1c1cccc(Oc2ccccc2)c1 (configuration not stated): 74.5
- NC1=Nc2ccccc2Sc2nccn21: 64.9

Values from PubChem BioAssay (NCI)
